Assay system: Plasma kallikrein (Homo sapiens)
Procedure summary: Inhibition of human plasma kallikrein using Z-Phe-Arg-AMC substrate after 30 mins by spectrophotometric assay
Starred links: 1 amine or outer side, 2 acyl side, 3 side chain; linkers in the order of their positions; H or OH if unused. Positions of bridges follow the written chain, without caps; N, C: chain ends. Residues, ends and D or L forms follow the SMILES beside them. TBMB = c1c(C[*:1])cc(C[*:3])cc1C[*:2]
Outcome measure: pIC50
pIC50 here is simply -log10 of the concentration when that concentration is written in mol/L.

What value of pIC50 has been reported for the following molecule? CC[C@H](C)[C@@H]1NC(=O)[C@H](CC(N)=O)NC(=O)[C@H](CC(N)=O)NC(=O)[C@H](C(C)C)NC(=O)[C@H](CCCNC(=N)N)NC(=O)[C@@H]2CSCc3cc(cc(c3)CSC[C@@H](C(=O)NCC(N)=O)NC(=O)[C@H](CO)NC1=O)CSC[C@H](NC(=O)[C@H](C)N)C(=O)NCC(=O)NCC(=O)N[C@@H](CC(N)=O)C(=O)N[C@@H](CO)C(=O)N[C@@H](CC(=O)O)C(=O)N[C@@H](CCCNC(=N)N)C(=O)N2 (H-ACGGNSDRCRVNNISCG-NH2; linker 2-9-16 via TBMB)
5.70

----------
Assay system: Plasma kallikrein (Homo sapiens, UniProt P03952)
Sequence (P03952 20-390 limits assumed): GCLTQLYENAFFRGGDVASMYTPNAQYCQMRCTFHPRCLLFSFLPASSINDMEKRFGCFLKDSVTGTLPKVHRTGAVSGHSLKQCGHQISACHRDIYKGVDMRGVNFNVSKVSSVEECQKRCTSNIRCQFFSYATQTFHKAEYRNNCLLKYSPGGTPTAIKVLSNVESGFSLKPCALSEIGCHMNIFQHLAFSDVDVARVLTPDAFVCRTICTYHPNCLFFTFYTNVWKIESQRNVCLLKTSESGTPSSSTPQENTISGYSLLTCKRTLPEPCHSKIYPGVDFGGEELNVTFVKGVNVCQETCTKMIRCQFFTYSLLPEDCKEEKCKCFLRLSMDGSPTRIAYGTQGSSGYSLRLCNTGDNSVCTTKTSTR
Sequence (P03952 391-638 limits assumed): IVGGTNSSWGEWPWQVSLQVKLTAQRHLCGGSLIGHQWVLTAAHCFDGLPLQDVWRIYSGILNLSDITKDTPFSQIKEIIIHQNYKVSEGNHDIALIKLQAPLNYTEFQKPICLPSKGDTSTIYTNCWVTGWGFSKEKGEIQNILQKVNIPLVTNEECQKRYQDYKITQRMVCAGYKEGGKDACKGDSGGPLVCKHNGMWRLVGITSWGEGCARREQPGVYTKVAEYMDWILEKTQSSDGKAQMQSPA
Procedure summary: Inhibition of human plasma kallikrein using Z-Phe-Arg-AMC substrate after 30 mins by spectrophotometric assay
Starred links: 1 amine or outer side, 2 acyl side, 3 side chain; linkers in the order of their positions; H or OH if unused. Positions of bridges follow the written chain, without caps; N, C: chain ends. Residues, ends and D or L forms follow the SMILES beside them. TBMB = c1c(C[*:1])cc(C[*:3])cc1C[*:2]
Outcome measure: IC50

Consider the reported IC50 for these molecules:
Molecule	Outcome measure	Observed measurement
CC(C)[C@@H]1NC(=O)[C@@H](NC(=O)[C@H](C)N)CSCc2cc3cc(c2)CSC[C@@H](C(=O)NCC(N)=O)NC(=O)[C@H](C(C)O)NC(=O)[C@H](C(C)C)NC(=O)[C@H](Cc2c[nH]c4ccccc24)NC(=O)[C@H](CC(N)=O)NC(=O)[C@H](C(C)C)NC(=O)[C@H](CCCNC(=N)N)NC(=O)[C@H](CSC3)NC(=O)[C@H](Cc2ccc(O)cc2)NC(=O)[C@H](CC(N)=O)NC(=O)[C@H](Cc2cnc[nH]2)NC1=O (single isomer, unassigned)	IC50	1800 nM
CC(C)C[C@@H]1NC(=O)[C@H](Cc2c[nH]c3ccccc23)NC(=O)[C@H](CCC(=O)O)NC(=O)[C@H](CC(=O)O)NC(=O)[C@H](C(C)C)NC(=O)[C@@H]2CCCN2C(=O)[C@@H]2CSCc3cc(cc(c3)CSC[C@@H](C(=O)NCC(N)=O)NC1=O)CSC[C@H](NC(=O)[C@H](C)N)C(=O)N[C@@H](CO)C(=O)N[C@@H](CC(=O)O)C(=O)N[C@@H](CCCNC(=N)N)C(=O)N[C@@H](Cc1ccccc1)C(=O)N[C@@H](CCCNC(=N)N)C(=O)N[C@@H](CC(N)=O)C(=O)N2 (H-ACSDRFRNCPVDEWLCG-NH2; linker 2-9-16 via TBMB)	IC50	30 nM
CC(C)C[C@@H]1NC(=O)[C@H](C)NC(=O)[C@H](CCC(=O)O)NC(=O)[C@H](CC(=O)O)NC(=O)[C@H](C(C)C)NC(=O)[C@@H]2CCCN2C(=O)[C@@H]2CSCc3cc(cc(c3)CSC[C@@H](C(=O)NCC(N)=O)NC1=O)CSC[C@H](NC(=O)[C@H](C)N)C(=O)N[C@@H](CO)C(=O)N[C@@H](CC(=O)O)C(=O)N[C@@H](CCCNC(=N)N)C(=O)N[C@@H](Cc1ccccc1)C(=O)N[C@@H](CCCNC(=N)N)C(=O)N[C@@H](CC(N)=O)C(=O)N2 (H-ACSDRFRNCPVDEALCG-NH2; linker 2-9-16 via TBMB)	IC50	20 nM
CC(C)[C@H](NC(=O)[C@H](CCCN=C(N)N)NC(=O)[C@H](CS)NC(=O)[C@H](CCCN=C(N)N)NC(=O)CNC(=O)[C@H](CCC(=O)O)NC(=O)CNC(=O)[C@@H](NC(=O)CNC(=O)[C@H](CS)NC(=O)[C@H](C)N)[C@@H](C)O)C(=O)N[C@@H](CC(N)=O)C(=O)N[C@@H](Cc1c[nH]c2ccccc12)C(=O)N[C@H](C(=O)N1CCC[C@H]1C(=O)N[C@@H](CS)C(=O)NCC(N)=O)[C@@H](C)O	IC50	> 10000 nM

What value of IC50 has been reported for the following molecule? CC[C@H](C)[C@H](NC(=O)[C@H](CCC(=O)O)NC(=O)[C@@H](NC(=O)[C@@H]1CCCN1C(=O)[C@H](CS)NC(=O)[C@H](Cc1ccc(O)cc1)NC(=O)[C@H](CCCNC(=N)N)NC(=O)[C@H](CCCNC(=N)N)NC(=O)[C@H](CCC(=O)O)NC(=O)[C@@H](NC(=O)[C@H](CO)NC(=O)[C@H](CS)NC(=O)[C@H](C)N)[C@@H](C)O)[C@@H](C)CC)C(=O)N[C@@H](Cc1ccccc1)C(=O)N1CCC[C@H]1C(=O)N[C@@H](CS)C(=O)NCC(N)=O (H-ACSTERRYCPIEIFPCG-NH2)
7180 nM

----------
Assay system: Receptor tyrosine-protein kinase erbB-2 (Homo sapiens)
Sequence (P04626 whole entry): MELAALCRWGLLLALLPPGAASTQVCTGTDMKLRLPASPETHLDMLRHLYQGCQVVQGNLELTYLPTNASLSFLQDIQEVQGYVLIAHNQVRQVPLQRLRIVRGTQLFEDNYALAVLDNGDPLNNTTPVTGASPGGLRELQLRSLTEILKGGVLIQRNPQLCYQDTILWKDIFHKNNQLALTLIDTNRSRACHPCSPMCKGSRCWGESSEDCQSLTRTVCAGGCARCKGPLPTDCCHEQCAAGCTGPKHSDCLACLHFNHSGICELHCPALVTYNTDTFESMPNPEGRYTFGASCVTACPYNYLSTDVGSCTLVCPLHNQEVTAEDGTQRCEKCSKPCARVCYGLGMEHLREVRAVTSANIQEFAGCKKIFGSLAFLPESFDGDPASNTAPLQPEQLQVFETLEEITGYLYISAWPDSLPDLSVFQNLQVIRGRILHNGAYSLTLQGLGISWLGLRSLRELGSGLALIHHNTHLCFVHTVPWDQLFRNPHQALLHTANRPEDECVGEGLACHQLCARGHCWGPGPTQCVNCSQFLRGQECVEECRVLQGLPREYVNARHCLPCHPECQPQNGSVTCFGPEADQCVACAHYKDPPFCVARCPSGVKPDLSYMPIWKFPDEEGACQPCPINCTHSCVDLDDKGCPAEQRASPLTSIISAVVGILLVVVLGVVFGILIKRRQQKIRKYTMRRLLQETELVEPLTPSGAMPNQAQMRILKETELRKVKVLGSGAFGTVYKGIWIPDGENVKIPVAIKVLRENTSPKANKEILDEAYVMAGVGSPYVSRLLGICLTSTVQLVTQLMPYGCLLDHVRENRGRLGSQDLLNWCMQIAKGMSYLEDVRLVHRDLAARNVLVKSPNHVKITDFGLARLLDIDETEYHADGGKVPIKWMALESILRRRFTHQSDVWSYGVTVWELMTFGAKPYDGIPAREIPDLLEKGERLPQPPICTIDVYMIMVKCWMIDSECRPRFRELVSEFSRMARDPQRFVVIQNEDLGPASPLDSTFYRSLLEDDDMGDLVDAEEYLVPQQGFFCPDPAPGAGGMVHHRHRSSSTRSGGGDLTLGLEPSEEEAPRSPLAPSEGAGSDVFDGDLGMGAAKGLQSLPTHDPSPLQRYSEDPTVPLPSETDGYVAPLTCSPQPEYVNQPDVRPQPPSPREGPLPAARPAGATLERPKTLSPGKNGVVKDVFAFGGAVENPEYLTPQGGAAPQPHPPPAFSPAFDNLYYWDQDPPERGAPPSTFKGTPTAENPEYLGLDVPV
Residues, ends and D or L forms follow the SMILES beside them.
Outcome measure: Ki

Fill in the recorded Ki for this molecule, with Receptor tyrosine-protein kinase erbB-2 (Homo sapiens) as test system: CC(C)C[C@H](NC(=O)[C@H](CO)NC(=O)[C@H](Cc1ccc(O)cc1)NC(=O)[C@H](CS)NC(=O)[C@H](CS)NC(=O)[C@@H](N)CCCCN)C(=O)O (H-KCCYSL-OH)
30 µM

----------
Assay system: Prothrombin (Homo sapiens) (UniProt P00734)
Procedure summary: Inhibition of human thrombin at 10 uM using Boc-Phe-Ser-Arg-AMC substrate after 30 mins by spectrophotometric assay
The source made the active and inactive calls. No cut-off for these calls is given here. Residues, ends and D or L forms follow the SMILES beside them.
Outcome measure: inhibition

Compound	Outcome measure	Observed measurement
CC(C)C[C@H](NC(=O)[C@@H]1CCCN1C(=O)[C@H](CS)NC(=O)[C@H](CC(N)=O)NC(=O)[C@H](CCCNC(=N)N)NC(=O)[C@H](Cc1ccccc1)NC(=O)[C@H](CCCNC(=N)N)NC(=O)[C@H](CC(=O)O)NC(=O)[C@H](CO)NC(=O)[C@H](CS)NC(=O)[C@H](C)N)C(=O)N[C@@H](Cc1c[nH]c2ccccc12)C(=O)N[C@@H](CO)C(=O)NCC(=O)N[C@H](C(=O)N[C@@H](CS)C(=O)NCC(N)=O)[C@@H](C)O (H-ACSDRFRNCPLWSGTCG-NH2)	inhibition	inactive
CC(C)C[C@H](NC(=O)[C@H](C)NC(=O)[C@H](CCC(=O)O)NC(=O)[C@H](CC(=O)O)NC(=O)[C@H](C)NC(=O)[C@@H]1CCCN1C(=O)[C@H](CS)NC(=O)[C@H](CC(N)=O)NC(=O)[C@H](CCCNC(=N)N)NC(=O)[C@H](Cc1ccccc1)NC(=O)[C@H](CCCNC(=N)N)NC(=O)[C@H](CC(=O)O)NC(=O)[C@H](CO)NC(=O)[C@H](CS)NC(=O)[C@H](C)N)C(=O)N[C@@H](CS)C(=O)NCC(N)=O (H-ACSDRFRNCPADEALCG-NH2)	inhibition	inactive
CC(C)[C@H](NC(=O)[C@H](CCCNC(=N)N)NC(=O)[C@H](CS)NC(=O)[C@H](CCCNC(=N)N)NC(=O)CNC(=O)[C@H](CCC(=O)O)NC(=O)CNC(=O)[C@@H](NC(=O)CNC(=O)[C@H](CS)NC(=O)[C@@H](C)N)[C@H](C)O)C(=O)N[C@@H](CC(N)=O)C(=O)N[C@@H](Cc1c[nH]c2ccccc12)C(=O)N[C@H](C(=O)N1CCC[C@H]1C(=O)N[C@@H](CS)C(=O)NCC(N)=O)[C@@H](C)O	inhibition	inactive
